# tgt: Histamine H3 receptor (Homo sapiens)
# Sequence (Q9Y5N1 whole entry): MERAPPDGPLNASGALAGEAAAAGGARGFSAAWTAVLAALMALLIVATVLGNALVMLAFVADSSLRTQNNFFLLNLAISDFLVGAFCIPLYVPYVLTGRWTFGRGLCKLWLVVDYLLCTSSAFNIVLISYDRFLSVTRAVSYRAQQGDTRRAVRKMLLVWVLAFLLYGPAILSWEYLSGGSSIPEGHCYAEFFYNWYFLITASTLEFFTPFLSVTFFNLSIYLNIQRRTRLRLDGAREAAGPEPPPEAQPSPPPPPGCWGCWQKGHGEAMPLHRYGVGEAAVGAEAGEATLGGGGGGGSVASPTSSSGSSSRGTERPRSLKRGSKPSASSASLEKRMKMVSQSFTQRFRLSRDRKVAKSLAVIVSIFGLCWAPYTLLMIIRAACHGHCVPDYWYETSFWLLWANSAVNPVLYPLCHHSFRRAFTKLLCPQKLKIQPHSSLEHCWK
# experimentalDetails: Efficacy measured for human Histamine H3 receptor relative to histamine
# Format: functional
measurementType: Efficacy

Batch: Efficacy for all items listed.
1. NC[C@H]1C=C[C@H](c2c[nH]cn2)O1
2. NC[C@@H]1CC[C@@H](c2c[nH]cn2)O1

1. 1
2. 0.91

---

Please provide measured pEC50 for the entries that follow.
# tgt: UniProtKB Q9Y5N1
# experimentalDetails: Inhibition of the forskolin-stimulated cAMP production in SK-N-MC cells expressing human Histamine H3 receptor
Numbers only, as −log10 of the molar value.

Fill in the blank: the reported pEC50 of c1ccc(COC[C@@H]2CC[C@H](c3c[nH]cn3)O2)cc1 is ____.
6.72

Now the molecule c1ccc(COC[C@H]2CC[C@@H](c3c[nH]cn3)O2)cc1
5.01

Proceeding to the next molecule to report its pEC50.
Fill in the blank: the reported pEC50 of NC[C@@H]1CC[C@H](c2c[nH]cn2)O1 (single isomer, unassigned) is ____.
6.11

---

Quick record: pKi, UniProt:Q9H3N8.
Sequence (Q9H3N8 whole entry): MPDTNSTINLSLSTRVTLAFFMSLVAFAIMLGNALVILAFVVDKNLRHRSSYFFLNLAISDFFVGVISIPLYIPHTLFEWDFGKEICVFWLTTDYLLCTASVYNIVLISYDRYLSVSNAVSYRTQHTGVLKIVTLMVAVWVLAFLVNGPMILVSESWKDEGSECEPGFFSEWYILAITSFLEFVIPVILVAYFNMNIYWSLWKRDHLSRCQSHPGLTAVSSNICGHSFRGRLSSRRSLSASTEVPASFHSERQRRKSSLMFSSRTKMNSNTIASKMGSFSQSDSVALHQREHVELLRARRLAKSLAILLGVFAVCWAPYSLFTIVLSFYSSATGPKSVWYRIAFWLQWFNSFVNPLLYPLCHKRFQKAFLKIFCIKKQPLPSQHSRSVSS
Answers are plain numbers, as −log10 of the molar value.

Here's what some known entries look like.
Fill in the blank: the reported pKi of NC[C@H]1C=C[C@@H](c2c[nH]cn2)O1 (single isomer, unassigned) is ____.
4.92

Now the compound C/N=C(\NC#N)NC[C@H]1CC[C@H](c2c[nH]cn2)O1
6.90

Now the compound NC[C@H]1C=C[C@H](c2c[nH]cn2)O1
4.93

Now the compound c1ccc(COC[C@@H]2CC[C@H](c3c[nH]cn3)O2)cc1
6.36

Now the compound NC[C@H]1CC[C@H](c2c[nH]cn2)O1 [IMIFURAMINE]
6.05

Batch: pKi for all items listed.
1. NC[C@@H]1CC[C@H](c2c[nH]cn2)O1 (single isomer, unassigned)
2. c1ccc(COC[C@H]2CC[C@@H](c3c[nH]cn3)O2)cc1

[5.60, 4.87]

---

Please provide measured Efficacy for the entries that follow.
# tgt: UniProt:Q9Y5N1
# experimentalDetails: Efficacy measured for human Histamine H3 receptor relative to histamine
# Format: functional

Here's what some known entries look like.
Fill in the blank: the reported Efficacy of NC[C@@H]1CC[C@H](c2c[nH]cn2)O1 (single isomer, unassigned) is ____.
1.06

Now the compound c1ccc(COC[C@H]2CC[C@H](c3c[nH]cn3)O2)cc1
0.97

Now the compound C/N=C(\NC#N)NC[C@H]1CC[C@H](c2c[nH]cn2)O1
0.79

Now the compound C/N=C(\NC#N)NC[C@@H]1CC[C@H](c2c[nH]cn2)O1 (single isomer, unassigned)
0.43

Now the compound C/N=C(\NC#N)NC[C@H]1CC[C@@H](c2c[nH]cn2)O1 (single isomer, unassigned)
< 0.1

Batch: Efficacy for all items listed.
1. NC[C@@H]1C=C[C@H](c2c[nH]cn2)O1 (single isomer, unassigned)
2. NC[C@H]1CC[C@@H](c2c[nH]cn2)O1 (single isomer, unassigned)

1. 0.93
2. 0.95

Fill in the blank: the reported Efficacy of c1ccc(COC[C@@H]2CC[C@@H](c3c[nH]cn3)O2)cc1 is ____.
0.66
